These data points were gathered from PubChem BioAssay AID1943.

tested on: Hepatitis C virus NS3 helicase; experiment: HCV NS3 helicase inhibitors, retest, confirmation, biochemical, Cy5 molecular beacon fluorescence, triplicate (AID 1943); settings: NS3 helicase DNA unwinding, at 10.9 µM, hits give high values
Hit rate of the full screen: of about 1,600 compounds, about 500 (31%) were called active. The list is a sample of the results.
inhibition below 20% gives N; inhibition at or above it gives Y.

compound: Cc1ccc(C)c(-n2c(SCC(=O)O)nc3sc4c(c3c2=O)CCCC4)c1
discrete_label: Y
--
compound: Cc1ccccc1Nc1nnc(SCC(=O)c2cc3ccccc3o2)s1
discrete_label: N
--
compound: Nc1ccc2nc3c(=O)[nH]c(=S)[nH]c3nc2c1
discrete_label: N
--
compound: S=C(NCCc1ccccc1)N1CCCCC1
discrete_label: N
--
compound: Cc1cc(C)c2nc(-c3ccco3)cc(C(=O)O)c2c1
discrete_label: Y
--
compound: COc1cccc(C(=O)CC(=O)C(=O)Nc2ccc([N+](=O)[O-])cc2C)c1
discrete_label: N
--
compound: O=C(N/N=C/c1ccco1)c1csc2c1CCCC2
discrete_label: N
--
compound: CCOc1ccc(C2C3=C(CCCC3=O)N(CC(=O)O)C3=C2C(=O)CCC3)cc1
discrete_label: N
--
compound: CN(C)c1ccc(N/C=C/C(=O)C(F)(F)F)cc1
discrete_label: N
--
compound: CS/C(=C\C(=O)c1ccco1)Nc1ccccc1Cl
discrete_label: N
--
compound: O=C1NN(c2ccccc2)C(=O)/C1=C/c1ccc(-c2cccc(C(=O)O)c2)o1
discrete_label: Y
--
compound: Cc1ccc(C2=N/C(=C\c3ccc(OS(=O)(=O)c4ccc(C)cc4)cc3)C(=O)O2)cc1
discrete_label: Y
--
compound: CC1=NN(c2ccc(Cl)c(C(=O)O)c2)C(=O)/C1=C/c1ccc(-c2ccccc2[N+](=O)[O-])o1
discrete_label: Y
--
compound: Cc1ccc(C2Nc3cccc4cccc(c34)N2)cc1
discrete_label: N
--
compound: CCSc1nsc(NC(=O)Nc2cccc(C(C)=O)c2)n1
discrete_label: N
--
compound: COc1ccccc1N1CCN(C(=O)CCS(=O)(=O)c2ccc3c(c2)NC(=O)C(C)S3)CC1 (configuration not stated)
discrete_label: N
--
compound: CCOC(=O)c1c(-c2ccccc2)oc2cc(Br)c(O)c(C=O)c12
discrete_label: Y
--
compound: COc1ccc(/C=C2\SC(=S)N(CCC(=O)Nc3cccc(C(=O)O)c3)C2=O)cc1OC
discrete_label: Y
--
compound: CC(C)c1ccc(Nc2nnc(SCC(=O)c3nnc(-c4ccccc4)o3)s2)cc1
discrete_label: Y
--
compound: COc1cc(/C=C2/C(=O)NN(c3cccc(Cl)c3)C2=O)cc(Br)c1O
discrete_label: Y
--
compound: Cc1cccc(NC(=O)c2sc3nc4c(c(-c5ccco5)c3c2N)CCC4)c1
discrete_label: N
--
compound: Cc1ccc(C(CC(=O)O)Nc2nc(N3CCCCC3)nc(N3CCCCC3)n2)cc1 (configuration not stated)
discrete_label: Y
